Origin of measurements: PubChem BioAssay

Assay: S. cerevisiae RM11-1a growth modifiers, primary screen, strain RM11-1a, OD600, basal, 24 h (AID 1177);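 further: cultures grown under basal conditions with no added stressor; test concentration not given here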
Details: OD600, 24 h, higher = more signal, called active from +8 up or from −8 down
Measure Name: z-score
Numbers only.

{"Molecule": "CCCC=C(CCC)[C@@H](NC(=O)c1ccccc1)c1ccc(C(=O)OC)cc1", "Measured": -0.363}

List z-score for every entry below, keeping the order given.
1. COc1ccc(NN2C(C(O)c3ccc(OC)cc3)C=CC3C(=O)N(C4CCCCC4)C(=O)C32)cc1 (configuration not stated)
2. CC(C)CNC(=O)[C@@H]1c2ccccc2C(=O)N(C2Cc3ccccc3C2)[C@H]1c1ccc(CO)cc1
3. C=C(CCCC)/C(=C/C[C@H](OC(C)=O)c1cccc(OCCO)c1)c1cc(C(=O)OC)ccc1OC
4. COCCOC(=O)N1C(=O)[C@@]2(c3cc(C#CC4=CCCCC4)ccc31)[C@H](c1ccc(OCCO)cc1)N1[C@H](c3ccccc3)[C@H](c3ccccc3)OC(=O)[C@H]1[C@@H]2C(=O)N1CCCCCCC1

### Response
1: 0.107; 2: -1.09; 3: -0.515; 4: -0.766

List z-score for every entry below, keeping the order given.
1. Cc1ccc(S[C@]2(C(=O)NCC(F)(F)F)CC(=O)N(C3CCCCC3)[C@@H]2c2ccc(CO)cc2)cc1
2. COCCOC(=O)N1C(=O)[C@@]2(c3cc(C#CC4(O)CCCCCC4)ccc31)[C@H](C(=O)NC[C@H](O)c1ccccc1)[C@H]1C(=O)O[C@H](c3ccccc3)[C@H](c3ccccc3)N1[C@@H]2c1ccc(O)cc1

### Response
[0.309, 0.759]
